Molecular target: 5-HT4 Receptor (Cavia porcellus, UniProt O70528)
Sequence (O70528 whole entry): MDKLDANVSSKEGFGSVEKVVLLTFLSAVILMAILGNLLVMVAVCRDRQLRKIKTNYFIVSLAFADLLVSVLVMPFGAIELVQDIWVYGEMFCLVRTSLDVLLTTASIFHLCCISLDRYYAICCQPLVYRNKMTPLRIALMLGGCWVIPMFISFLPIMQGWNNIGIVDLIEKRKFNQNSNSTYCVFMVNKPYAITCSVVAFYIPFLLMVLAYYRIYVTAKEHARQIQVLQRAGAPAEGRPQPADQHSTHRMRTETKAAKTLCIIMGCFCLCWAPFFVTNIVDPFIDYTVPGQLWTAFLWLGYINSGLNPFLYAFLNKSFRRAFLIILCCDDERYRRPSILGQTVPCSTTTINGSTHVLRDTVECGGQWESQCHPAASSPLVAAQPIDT
Experiment: 5-HT4 Receptor Binding, Guinea Pig Striatum, [3H]GR113808
Parameters: Guinea Pig Striatum; from tissue; host or cells: guinea pig striatum
measure: pIC50
Answers are plain numbers, as −log10 of the molar value.

Entry under review: COc1cc(N)c(Cl)cc1C(=O)N[C@@H]1CCN(CCCCCC(=O)O[C@H]2CN3CCC2CC3)C[C@@H]1OC [ATI-7505] . Reported pIC50?
8.08

---

Target: UniProtKB O70528
Assay: 5-HT4 Receptor Binding, Guinea Pig Striatum, [3H]GR113808
Parameters: Guinea Pig Striatum; from tissue; host or cells: guinea pig striatum
Settings: Guinea Pig Striatum; [3H]GR113808 (0.70 nM); read-out: Ki
measure: Ki

Entry under review: COc1cc(N)c(Cl)cc1C(=O)N[C@@H]1CCN(CCCCCC(=O)O)C[C@@H]1OC [ATI-7500] . Reported Ki?
> 500 nM

---

Assay: Metabolism in Fresh Human Blood
Type: in vitro ADME
Conditions: fresh heparinized human blood, Subject 2, 100 μM, 37° C., read-out: Half-life
measure: half-life at 100 µM (min)
Numbers only, in min.

Entry under review: COc1cc(N)c(Cl)cc1C(=O)N[C@@H]1CCN(CCCCCC(=O)O[C@H]2CN3CCC2CC3)C[C@@H]1OC . Reported half-life at 100 µM?
8.61

---

Target: 5-HT4 Receptor (Cavia porcellus, UniProt O70528)
Assay: 5-HT4 Receptor Binding, Guinea Pig Striatum, [3H]GR113808
Set-up: Guinea Pig Striatum; from tissue; host or cells: guinea pig striatum
measure: pKi
Answers are plain numbers, as −log10 of the molar value.

Entry under review: COc1cc(N)c(Cl)cc1C(=O)N[C@@H]1CCN(CCCCCC(=O)O[C@H]2CN3CCC2CC3)C[C@@H]1OC . Reported pKi?
8.85

---

Biological target: human IKr (HERG K+ channels) (Homo sapiens)
Sequence (Q12809 whole entry): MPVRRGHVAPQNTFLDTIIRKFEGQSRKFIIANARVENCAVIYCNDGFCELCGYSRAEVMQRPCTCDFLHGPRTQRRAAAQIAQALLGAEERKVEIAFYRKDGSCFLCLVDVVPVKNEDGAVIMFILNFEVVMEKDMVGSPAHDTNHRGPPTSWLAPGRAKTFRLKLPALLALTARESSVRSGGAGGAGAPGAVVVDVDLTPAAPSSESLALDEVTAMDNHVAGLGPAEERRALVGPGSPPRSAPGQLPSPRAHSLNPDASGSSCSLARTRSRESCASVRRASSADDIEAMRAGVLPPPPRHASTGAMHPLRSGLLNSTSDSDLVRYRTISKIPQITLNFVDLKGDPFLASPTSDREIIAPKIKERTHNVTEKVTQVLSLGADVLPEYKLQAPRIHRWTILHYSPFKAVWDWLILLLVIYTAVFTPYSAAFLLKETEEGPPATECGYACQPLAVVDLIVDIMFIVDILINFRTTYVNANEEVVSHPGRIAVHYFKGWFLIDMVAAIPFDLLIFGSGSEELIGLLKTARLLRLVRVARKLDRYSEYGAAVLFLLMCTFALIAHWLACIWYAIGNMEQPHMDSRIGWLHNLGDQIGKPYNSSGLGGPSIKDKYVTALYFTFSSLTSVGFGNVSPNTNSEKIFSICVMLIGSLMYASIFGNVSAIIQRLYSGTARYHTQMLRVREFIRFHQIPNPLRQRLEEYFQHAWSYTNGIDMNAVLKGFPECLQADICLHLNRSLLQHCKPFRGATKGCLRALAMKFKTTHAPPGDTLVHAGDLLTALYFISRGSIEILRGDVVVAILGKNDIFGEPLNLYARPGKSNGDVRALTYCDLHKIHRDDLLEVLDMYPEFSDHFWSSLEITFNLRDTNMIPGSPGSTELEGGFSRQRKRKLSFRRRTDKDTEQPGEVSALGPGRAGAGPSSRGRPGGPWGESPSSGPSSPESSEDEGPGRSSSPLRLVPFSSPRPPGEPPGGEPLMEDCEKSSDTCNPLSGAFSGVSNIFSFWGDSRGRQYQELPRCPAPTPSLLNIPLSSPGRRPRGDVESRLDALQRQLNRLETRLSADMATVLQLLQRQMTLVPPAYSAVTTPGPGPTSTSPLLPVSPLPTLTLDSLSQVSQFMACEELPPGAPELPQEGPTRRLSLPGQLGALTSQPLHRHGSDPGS
Assay: whole cell patch-clamp of IKr in HEK-293 cells expressing the HERG K+ channels
measure: IC50 (µM)
Numbers only, in µM.

Query IC50 on human IKr (HERG K+ channels) (Homo sapiens) for COc1cc(N)c(Cl)cc1C(=O)N[C@@H]1CCN(CCCCCC(=O)O[C@H]2CN3CCC2CC3)C[C@@H]1OC [ATI-7505]
24.5

---

Type: in vitro ADME, human
Procedure: ATI-7505 (2 μM) was incubated with human microsomal protein (1 mg) in the presence or absence of NADPH regenerating system (cofactor). Thus the major biotransformation pathway for ATI-7505 occurs independently of CYP450 enzymes. […] In this experiment, the amount of substrate (compounds III, IV, V, and VI) remaining in the reaction after 5, 60, and 90 minutes were evaluated by a tandem HPLC-MS method. […]
measure: hydrolysis by esterase in human microsomes

smiles.repr | result
COc1cc(N)c(Cl)cc1C(=O)N[C@H]1CCN(CCCCCC(=O)O[C@@H]2CN3CCC2CC3)C[C@H]1OC | quite stable with time
COc1cc(N)c(Cl)cc1C(=O)N[C@@H]1CCN(CCCCCC(=O)O[C@@H]2CN3CCC2CC3)C[C@@H]1OC | quite stable with time
